Where do the numbers come from? From patent US20220251215A1.

# MEASUREMENT_TARGET: T1, monomeric HLA-A2:NY-ESO-1(156-165) (V at position 165) peptide complex, 2906
# T1 construct: also called soluble HLA-A2:NY-ESO-1 peptide complex
# TEST_NAME: SPR, 25 C, antibody captured, monomeric complex injected;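 also: antibody held on sensor chip via immobilized anti-human or anti-mouse Fc antibody, rate constants derived by fitting sensorgrams to a 1:1 binding model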
Give measured koff for each item. Keep answers brief.
Note: state the figure and append the unit.

Value of koff reported for the binder mAb28042P (antibody, human IgG4 S228P, kappa, V domains shown) VH: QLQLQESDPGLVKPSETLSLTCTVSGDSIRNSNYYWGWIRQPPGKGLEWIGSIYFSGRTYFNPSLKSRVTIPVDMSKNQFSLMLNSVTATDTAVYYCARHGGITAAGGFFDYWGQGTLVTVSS VL: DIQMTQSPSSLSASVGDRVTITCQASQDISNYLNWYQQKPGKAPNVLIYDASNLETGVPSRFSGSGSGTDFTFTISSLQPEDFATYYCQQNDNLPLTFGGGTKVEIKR is 0.000199 s⁻¹

The recorded koff for entry mAb28037P2 (antibody, human IgG4 S228P, kappa, V domains shown) VH: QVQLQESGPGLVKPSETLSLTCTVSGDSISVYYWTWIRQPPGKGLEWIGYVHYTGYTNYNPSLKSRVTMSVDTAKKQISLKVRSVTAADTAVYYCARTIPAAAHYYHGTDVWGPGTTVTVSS VL: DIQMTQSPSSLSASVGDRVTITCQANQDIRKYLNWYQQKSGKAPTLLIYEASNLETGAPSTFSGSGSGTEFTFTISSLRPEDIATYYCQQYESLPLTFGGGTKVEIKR equals 0.000307 s⁻¹

The value of koff measured for the binder mAb24959N (antibody, human IgG4 S228P, kappa, V domains shown) VH: QLQLLESGPGLVKPSETLSLICTVSGGSIRGSSYYWGWIRQPPEKGLEWIGSIYSSGSTYYNPSLKSRVTISADTSKNQFSLKLSSVTAADTAVYYCARHGGITAVQLEFDPWGQGTLVTVSS VL: DIQMTQSPSSLSASVGDRVTITCQASQDISNYLKWYQQKPGKAPKILIHDASNLEIGVPSRFSGSGAGTDFIFTISSLQPEDIGTYYCQQYDNLPITFGQGTRLEIKR turned out to be 0.000517 s⁻¹
